Biological target: human neutrophil elastase (HNE) (Homo sapiens)
Sequence (P08246 30-267): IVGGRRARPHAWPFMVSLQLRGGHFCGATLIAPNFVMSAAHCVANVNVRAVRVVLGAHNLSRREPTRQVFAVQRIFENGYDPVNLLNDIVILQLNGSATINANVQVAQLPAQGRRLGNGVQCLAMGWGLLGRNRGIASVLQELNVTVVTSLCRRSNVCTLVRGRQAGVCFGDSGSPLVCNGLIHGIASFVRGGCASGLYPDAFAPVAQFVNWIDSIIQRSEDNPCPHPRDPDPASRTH
Assay: HNE Ki of CE compounds, tested as described in WO 96/16080
Format: biochemical
Settings: read-out: HNE Ki
The entries below come with measured Ki values attached.
I only need the number, in nM, no unit after it.

# count of solved cases: 5
Compound	Ki / nM
Cc1cccc(Cc2nnc(C(=O)C(NC(=O)CN3C(=O)N(Cc4ccccc4)C(=O)[C@@H]3Cc3ccccc3)C(C)C)o2)c1 (some centres unmarked)	85
Cc1cccc(Cc2nnc(C(=O)[C@@H](NC(=O)CN(C(=O)c3ccc[nH]3)C3CCc4ccccc43)C(C)C)o2)c1 (some centres unmarked)	10.6
Cc1cccc(Cc2nnc(C(=O)[C@@H](NC(=O)CN3C(=O)N[C@H](Cc4c[nH]c5ccccc45)C3=O)C(C)C)o2)c1	11
CC(C)[C@H](NC(=O)[C@@H]1CCCN1C(=O)[C@@H](NC(=O)OCc1ccccc1)C(C)C)C(=O)c1noc(Cc2ccc(N(C)C)cc2)n1	1
Cc1cccc(Cc2nnc(C(=O)[C@@H](NC(=O)Cn3c(-c4ccccn4)nc4ccccc43)C(C)C)o2)c1	796

// query Query: Ki; subject: Cc1cccc(Cc2nnc(C(=O)[C@@H](NC(=O)[C@@H]3CCCN3C(=O)[C@@H](NC(=O)OC(C)C)C(C)C)C(C)C)o2)c1
// result 0.12

// query Query: Ki; subject: CC(=O)N1CC(=O)N(CC(=O)N[C@H](C(=O)c2nnc(Cc3cccc(C)c3)o2)C(C)C)C(=Cc2ccccc2)C1=O
// result 1.9

// query Query: Ki; subject: Cc1cccc(Cc2nnc(C(=O)[C@@H](NC(=O)CN3C(=O)CNC(=O)C3Cc3ccncc3)C(C)C)o2)c1 (some centres unmarked)
// result 52
